- test-target: Phosphoribosylglycinamide formyltransferase (Escherichia coli) (UniProt P08179)
- Sequence (P08179 whole entry, looked up): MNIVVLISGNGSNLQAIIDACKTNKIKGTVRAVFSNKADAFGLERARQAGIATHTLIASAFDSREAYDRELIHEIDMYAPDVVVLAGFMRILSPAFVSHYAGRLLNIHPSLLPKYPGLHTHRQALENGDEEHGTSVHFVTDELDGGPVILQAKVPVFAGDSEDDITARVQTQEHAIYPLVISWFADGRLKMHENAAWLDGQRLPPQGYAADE
- protocol-text: In vitro inhibitory activity against Glycinamide ribonucleotide transformylase (GAR Tfase) following 30 min pre-incubation at 250 uM concentration

[
  {
    "chemical-string": "Nc1nc(N)c(CCCNc2cc(F)cc(F)c2[N+](=O)[O-])c(O)n1",
    "readout-unit": "%",
    "inhibition": 70
  },
  {
    "chemical-string": "Nc1nc(N)c(CCCNc2cc(F)c(F)cc2[N+](=O)[O-])c(O)n1",
    "readout-unit": "%",
    "inhibition": 82
  },
  {
    "chemical-string": "Nc1nc(N)c(CCCNc2cc(F)c([N+](=O)[O-])cc2[N+](=O)[O-])c(O)n1",
    "readout-unit": "%",
    "inhibition": 73
  },
  {
    "chemical-string": "Nc1nc(N)c(CCCNc2cc(F)ccc2[N+](=O)[O-])c(O)n1",
    "readout-unit": "%",
    "inhibition": 69
  },
  {
    "chemical-string": "COC(=O)c1ccc(CN(CCCc2c(N)nc(N)nc2O)c2ccc([N+](=O)[O-])c(F)c2F)cc1",
    "readout-unit": "%",
    "inhibition": 57
  },
  {
    "chemical-string": "COC(=O)c1ccc(CN(CCCc2c(N)nc(N)nc2O)c2cc(F)c([N+](=O)[O-])cc2[N+](=O)[O-])cc1",
    "readout-unit": "%",
    "inhibition": 9
  },
  {
    "chemical-string": "COC(=O)c1ccc(CN(CCCc2c(N)nc(N)nc2O)c2cc(F)c(F)cc2[N+](=O)[O-])cc1",
    "readout-unit": "%",
    "inhibition": 33
  },
  {
    "chemical-string": "COC(=O)c1ccc(CN(CCc2c(N)nc(N)nc2O)c2cc(F)c([N+](=O)[O-])cc2[N+](=O)[O-])cc1",
    "readout-unit": "%",
    "inhibition": 24
  },
  {
    "chemical-string": "COC(=O)c1ccc(CN(CCc2c(N)nc(N)nc2O)c2ccc([N+](=O)[O-])c(F)c2F)cc1",
    "readout-unit": "%",
    "inhibition": 60
  },
  {
    "chemical-string": "COC(=O)c1ccc(CN(CCCc2c(N)nc(N)nc2O)c2cc(F)ccc2[N+](=O)[O-])cc1",
    "readout-unit": "%",
    "inhibition": 41
  },
  {
    "chemical-string": "COC(=O)c1ccc(CN(CCCc2c(N)nc(N)nc2O)c2cc(F)cc(F)c2[N+](=O)[O-])cc1",
    "readout-unit": "%",
    "inhibition": 5
  },
  {
    "chemical-string": "COC(=O)c1ccc(CN(CCc2c(N)nc(N)nc2O)c2cc(F)cc(F)c2[N+](=O)[O-])cc1",
    "readout-unit": "%",
    "inhibition": 9
  },
  {
    "chemical-string": "COC(=O)c1ccc(CN(CCc2c(N)nc(N)nc2O)c2cc(F)ccc2[N+](=O)[O-])cc1",
    "readout-unit": "%",
    "inhibition": 43
  },
  {
    "chemical-string": "COC(=O)c1ccc(CN(CCc2c(N)nc(N)nc2O)c2cc(F)c(F)cc2[N+](=O)[O-])cc1",
    "readout-unit": "%",
    "inhibition": 3
  }
]
